target: Transthyretin (Homo sapiens); experiment: Binding affinity to TTR in human plasma assessed as binding stoichiometry at 10.8 uM after 24 hrs under dark condition by RP-HPLC based antibody capture method; type: cell-free
Mark each entry TRUE if its Activity sits below 1, and FALSE for all others.

| structure as smiles | assigned label |
| --- | --- |
| O=C(Nc1cc(Br)c(O)c(Br)c1)c1cc(F)ccc1F | FALSE |
| Cc1ccccc1C(=O)Nc1cc(Br)c(O)c(Br)c1 | FALSE |
| COc1c(Br)cc(C(=O)Nc2cc(Br)c(O)c(Br)c2)cc1Br | FALSE |
| O=C(Nc1cc(Br)c(O)c(Br)c1)c1cccc(Br)c1 | TRUE |
| COc1ccc(OC)c(C(=O)Nc2cc(Br)c(O)c(Br)c2)c1 | FALSE |
| Nc1ccccc1C(=O)Nc1cc(Br)c(O)c(Br)c1 | FALSE |
| Cc1ccc(C)c(C(=O)Nc2cc(Br)c(O)c(Br)c2)c1 | FALSE |
| O=C(Nc1cc(Br)c(O)c(Br)c1)c1ccccc1Br | FALSE |
| O=C(Nc1cc(Br)c(O)c(Br)c1)c1cc(Br)c(O)c(Br)c1 | TRUE |
| O=C(Nc1cc(Br)c(O)c(Br)c1)c1cccc(F)c1 | TRUE |
| O=C(Nc1cc(Br)c(O)c(Br)c1)c1cccc(O)c1 | FALSE |
| O=C(Nc1cc(Br)c(O)c(Br)c1)c1cc(O)cc(O)c1 | FALSE |
| O=C(Nc1cc(Br)c(O)c(Br)c1)c1cc(Cl)cc(Cl)c1 | FALSE |
| O=C(Nc1cc(Br)c(O)c(Br)c1)c1ccccc1O | FALSE |
| O=C(O)c1cccc(C(=O)Nc2cc(Br)c(O)c(Br)c2)c1 | TRUE |
| Cc1cccc(C)c1C(=O)Nc1cc(Br)c(O)c(Br)c1 | FALSE |
| O=C(Nc1cc(Br)c(O)c(Br)c1)c1cc(F)c(O)c(F)c1 | FALSE |
| O=C(Nc1cc(Br)c(O)c(Br)c1)c1ccc(O)cc1 | FALSE |
| Nc1cccc(C(=O)Nc2cc(Br)c(O)c(Br)c2)c1 | FALSE |
| O=C(Nc1cc(Br)c(O)c(Br)c1)c1ccccc1Cl | FALSE |
| O=C(Nc1cc(Br)c(O)c(Br)c1)c1cc(Cl)ccc1Cl | FALSE |
| O=C(Nc1cc(Br)c(O)c(Br)c1)c1ccccc1F | FALSE |
| Cc1cccc(C(=O)Nc2cc(Br)c(O)c(Br)c2)c1 | TRUE |
| Cc1cc(C(=O)Nc2cc(Br)c(O)c(Br)c2)cc(C)c1O | FALSE |
| O=C(Nc1cc(Br)c(O)c(Br)c1)c1ccccc1[N+](=O)[O-] | FALSE |
| Cc1cc(C)cc(C(=O)Nc2cc(Br)c(O)c(Br)c2)c1 | FALSE |
| COc1c(Cl)cc(C(=O)Nc2cc(Br)c(O)c(Br)c2)cc1Cl | FALSE |
| O=C(Nc1cc(Br)c(O)c(Br)c1)c1cc(C(F)(F)F)ccc1C(F)(F)F | FALSE |
| O=C(Nc1cc(Br)c(O)c(Br)c1)c1cccc(Cl)c1 | FALSE |
| O=C(Nc1cc(Br)c(O)c(Br)c1)c1c(Cl)cccc1Cl | FALSE |
| O=C(Nc1cc(Br)c(O)c(Br)c1)c1cc(Br)ccc1Br | FALSE |
| O=C(Nc1cc(Br)c(O)c(Br)c1)c1cc(Br)cc(Br)c1 | FALSE |
| O=C(Nc1cc(Br)c(O)c(Br)c1)c1ccccc1C(F)(F)F | FALSE |
| COc1cccc(OC)c1C(=O)Nc1cc(Br)c(O)c(Br)c1 | TRUE |
| O=C(Nc1cc(Br)c(O)c(Br)c1)c1cc(Cl)c(O)c(Cl)c1 | TRUE |
| O=C(Nc1cc(Br)c(O)c(Br)c1)c1c(F)cccc1F | FALSE |
| O=C(O)c1ccc(C(=O)Nc2cc(Br)c(O)c(Br)c2)cc1 | TRUE |
| COc1cc(OC)cc(C(=O)Nc2cc(Br)c(O)c(Br)c2)c1 | TRUE |
| COc1ccccc1C(=O)Nc1cc(Br)c(O)c(Br)c1 | FALSE |
| O=C(Nc1cc(Br)c(O)c(Br)c1)c1ccccc1 | TRUE |

These data points were gathered from ChEMBL document CHEMBL1140932.
